# Lookup of reported melting point keyed by entry

{"molecule": "O=C(c1ccc(-c2ccc3ncc(C#Cc4ccncc4)n3c2)cc1)N1CCOCC1 [Example 94]", "melting point": "165 to 166 °C"}
{"molecule": "O=C(c1ccc(-c2ccn3ncc(C#Cc4ccncc4)c3n2)cc1)N1CCOCC1 [Example 114]", "melting point": "206 to 209 °C"}
{"molecule": "Nc1cc(C#Cc2cnc3ccc(-c4ccc(C(=O)N5CCOCC5)c(C(F)(F)F)c4)nn23)ccn1 [Example 83]", "melting point": "258.5 to 258.9 °C"}
{"molecule": "CN1CCN(C(=O)c2ccc(-c3ccc4ncc(C#Cc5ccnc(N)c5)n4n3)cc2)CC1=O [Example 77]", "melting point": "193.6 to 194.6 °C"}

Q: Sample Nc1cc(C#Cc2cnc3ccc(-c4ccc(C(=O)N5CCOCC5)c(Cl)c4)nn23)ccn1 [Example 82] — what was its melting point?
Result: 193.7 to 194.8 °C

Q: Sample Nc1cc(C#Cc2cnc3ccc(-c4ccc(C(=O)N5CCOCC5)cc4)cn23)ccn1 [Example 96] — what was its melting point?
Result: 133 to 138 °C

Q: Sample O=C(c1ccc(-c2ccc3ncc(C#Cc4ccnc5[nH]ccc45)n3c2)cc1)N1CCNCC1 [Example 110] — what was its melting point?
Result: 242 to 245 °C

Q: Sample Nc1ncc(C#Cc2cnc3ccc(-c4ccc(C(=O)N5CCOCC5)cc4)nn23)s1 [Example 121] — what was its melting point?
Result: 245 to 254 °C

---

biological target: MNK1 (Homo sapiens); assay: MNK1 enzymatic assay; assay type: biochemical
# Lookup of reported IC50 keyed by entry

Q: Sample O=C(c1ccc(-c2ccn3ncc(C#Cc4ccncc4)c3n2)cc1)N1CCOCC1 [Example 114] — what was its IC50?
Result: < 0.5 µM

---

target: MNK1 (Homo sapiens, UniProt Q9BUB5); experiment: MNK1 enzymatic assay; assay type: biochemical
Sequence (Q9BUB5 whole entry): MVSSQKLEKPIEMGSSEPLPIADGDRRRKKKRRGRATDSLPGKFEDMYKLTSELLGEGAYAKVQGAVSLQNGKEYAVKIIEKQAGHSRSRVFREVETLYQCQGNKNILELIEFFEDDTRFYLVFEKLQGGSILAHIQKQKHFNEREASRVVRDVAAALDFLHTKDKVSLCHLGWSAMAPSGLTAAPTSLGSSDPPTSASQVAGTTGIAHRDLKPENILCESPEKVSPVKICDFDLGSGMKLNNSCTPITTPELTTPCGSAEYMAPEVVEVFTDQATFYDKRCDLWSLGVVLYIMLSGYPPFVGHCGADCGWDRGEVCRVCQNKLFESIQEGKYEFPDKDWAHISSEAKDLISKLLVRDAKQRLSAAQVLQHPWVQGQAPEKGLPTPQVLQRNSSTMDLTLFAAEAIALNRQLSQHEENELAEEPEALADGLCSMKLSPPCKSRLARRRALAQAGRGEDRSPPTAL
measured-attribute: IC50

Examples with their reported IC50 follow.
{"smiles-data": "Cc1c(N)cccc1Nc1cc(C#Cc2cnc3ccc(-c4ccc(C(=O)N5CCNCC5)cc4)cn23)ccn1", "IC50": "< 0.5 µM"}
{"smiles-data": "CNCC(=O)Nc1cc(C#Cc2cnc3ccc(-c4ccc(C(=O)N5CCOCC5)cc4)nn23)ccn1", "IC50": "< 0.5 µM"}
{"smiles-data": "Cn1ccc2c(C#Cc3cnc4ccc(-c5ccc(C(=O)N6CCOCC6)cc5)nn34)ccnc21", "IC50": "< 0.5 µM"}

Q: Sample O=C(c1ccc(-c2ccc3ncc(C#Cc4ccnc(Nc5ccccc5)c4)n3n2)cc1)N1CCOCC1 — what was its IC50?
Result: < 0.5 µM

Q: Sample O=C(c1ccc(-c2ccc3ncc(C#Cc4c(C(F)(F)F)cnc5[nH]ccc45)n3n2)cc1)N1CCOCC1 — what was its IC50?
Result: < 0.5 µM

Q: Sample O=C(c1ccc(-c2ccc3ncc(C#Cc4ccnc5[nH]ccc45)n3c2)cc1)N1CCOCC1 — what was its IC50?
Result: < 0.5 µM

Q: Sample CS(=O)(=O)Nc1cccc(C#Cc2cnc3ccc(-c4ccc(C(=O)N5CCOCC5)cc4)nn23)c1 — what was its IC50?
Result: < 0.5 µM

---

target: MNK1 (Homo sapiens); assay: MNK1 enzymatic assay; format: biochemical
measured-attribute: IC50

Examples with their reported IC50 follow.
{"smiles-data": "CN1CCN(C(=O)c2ccc(-c3cn4c(C#Cc5ccccc5)cnc4cn3)cc2)CC1", "test-value": "< 0.5 µM"}
{"smiles-data": "CN(c1ccccc1)c1cc(C#Cc2cnc3ccc(-c4ccc(C(=O)N5CCOCC5)cc4)nn23)ccn1", "test-value": "< 0.5 µM"}
{"smiles-data": "Cc1ccncc1C#Cc1cnc2ccc(-c3ccc(C(=O)N4CCOCC4)cc3)nn12", "test-value": "< 0.5 µM"}
{"smiles-data": "O=C(c1ccc(-c2ccc3ncc(C#Cc4ccncc4)n3c2)cc1)N1CCOCC1", "test-value": "< 0.5 µM"}
{"smiles-data": "Cc1ncccc1Nc1cc(C#Cc2cnc3ccc(-c4ccc(C(=O)N5CCNCC5)cc4)cn23)ccn1", "test-value": "< 0.5 µM"}

Q: Sample Nc1cc(C#Cc2cnc3ccc(-c4ccc(C(=O)N5CCOCC5)cc4)cn23)c2cc[nH]c2n1 — what was its IC50?
Result: < 0.5 µM

Q: Sample Cc1ccccc1Nc1cc(C#Cc2cnc3ccc(-c4ccc(C(=O)N5CCOCC5)cc4)nn23)ccn1 — what was its IC50?
Result: < 0.5 µM

Q: Sample O=C(c1ccc(-c2ccc3ncc(C#Cc4ccnc(-c5ccccc5)c4)n3n2)cc1)N1CCOCC1 — what was its IC50?
Result: < 0.5 µM

Q: Sample O=C(c1ccc(-c2ccc3ncc(C#Cc4ccncc4)n3c2)cc1)N1CCNCC1 — what was its IC50?
Result: < 0.5 µM

Q: Sample O=C(Nc1cc(C#Cc2cnc3ccc(-c4ccc(C(=O)N5CCNCC5)cc4)cn23)ccn1)c1ccccc1 — what was its IC50?
Result: < 0.5 µM

---

Structures can show the parent of a compound that is named as a salt.
# Lookup of reported melting point keyed by entry

Examples with their reported melting point follow.
{"compound": "O=C(c1ccc(-c2cn3c(C#Cc4ccnc5[nH]ncc45)cnc3cn2)cc1)N1CCOCC1", "melting point": "192.8 to 193.8 °C"}
{"compound": "Nc1cc(C#Cc2cnn3ccc(-c4ccc(C(=O)N5CCOCC5)cc4F)nc23)ccn1 (as salt: salt) [Example 123, formic acid salt]", "melting point": "57.6 to 58.9 °C"}

Q: Sample Nc1cc(C#Cc2cnc3cnc(-c4ccc(C(=O)N5CCOCC5)c(Cl)c4)cn23)ccn1 — what was its melting point?
Result: 119.8 to 121.1 °C

Q: Sample Nc1cc(C#Cc2cnc3ccc(-c4ccc(C(=O)N5CCOCC5)cc4F)nn23)ccn1 (as salt: salt) [Example 122, formate salt] — what was its melting point?
Result: 78.2 to 79.4 °C

Q: Sample O=C(c1ccc(-c2ccc3ncc(C#Cc4ccncc4)n3c2)cc1)N1CCNCC1 — what was its melting point?
Result: 125 to 130 °C
